The reported measurements were obtained from patent US20240391954A1.

Target: human MC3R (human, UniProt P41968 1-323)
Sequence (P41968 whole entry): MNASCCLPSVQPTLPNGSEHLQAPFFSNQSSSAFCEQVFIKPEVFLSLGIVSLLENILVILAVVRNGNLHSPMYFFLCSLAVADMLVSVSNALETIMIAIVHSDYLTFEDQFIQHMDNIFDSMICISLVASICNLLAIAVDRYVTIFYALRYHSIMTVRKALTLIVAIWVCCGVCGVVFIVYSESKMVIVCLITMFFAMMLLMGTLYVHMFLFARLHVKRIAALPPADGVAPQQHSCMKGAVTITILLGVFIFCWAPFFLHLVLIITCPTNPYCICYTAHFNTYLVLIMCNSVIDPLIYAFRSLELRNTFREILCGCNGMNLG
Assay: cell-based or functional assay
Positions of bridges follow the written chain, without caps; N, C: chain ends. Non-standard residues stand in square brackets, D forms with d. 4Pal = N[C@@H](Cc1ccncc1)C(=O)O; Nle = CCCC[C@H](N)C(=O)O
quantity: cAMP EC50 (nM)
The reply should be a number in nM, with the unit left off.

binder	cAMP EC50, nM
Ac-RC[dA]R[dF]RWC-NH2 (disulfide 2-8; SMILES CC(=O)N[C@@H](CCCNC(=N)N)C(=O)N[C@H]1CSSC[C@@H](C(N)=O)NC(=O)[C@H](Cc2c[nH]c3ccccc23)NC(=O)[C@H](CCCNC(=N)N)NC(=O)[C@@H](Cc2ccccc2)NC(=O)[C@H](CCCNC(=N)N)NC(=O)[C@@H](C)NC1=O) [CTX-1211]	2.1

Now for another entry.
Q: Recorded cAMP EC50 for Ac-R[Nle]C[4Pal][dF]RWC-NH2 (disulfide 3-8; SMILES CCCC[C@H](NC(=O)[C@H](CCCNC(=N)N)NC(C)=O)C(=O)N[C@H]1CSSC[C@@H](C(N)=O)NC(=O)[C@H](Cc2c[nH]c3ccccc23)NC(=O)[C@H](CCCNC(=N)N)NC(=O)[C@@H](Cc2ccccc2)NC(=O)[C@H](Cc2ccncc2)NC1=O) [CTX-1621] , please?
Result: 36
